Sourced from patent US4725597A

test: Solubility limit; conditions: pH 7

smiles.data	solubility [µg/mL]
Cl.Cl.Cl.Cl.Clc1ccc(CCCN2CCN(CCCN3CCN(CCCc4ccc(Cl)cc4)CC3)CC2)cc1.O	1000
